- Read-out: Monocyte Chemoattractant Protein-1 (MCP1), CCL2 (gene 6347)
- assayProtocol: BSK_LPS_MCP1: BioMAP Diversity Plus: LPS Assay for Monocyte Chemoattractant Protein-1 (MCP1) Biomarker Activity (AID 2283081)
- conditionSummary: primary human HUVEC with PBMC; actives raise or lower the signal
Activity calls are given as the source filed them. How the source made its calls: active means hit-call score of the fitted dose curve at least 0.9, where 1 is the maximum; inactive means score below 0.9.
One label from this list, please: active, inactive

CCOC(=O)CC(=O)CCl    active

In: Identify the outcome logged in this assay for the compound shown: `Cc1ccc2nc3sc(=O)sc3nc2c1`
Out: active

In: Identify the outcome logged in this assay for the compound shown: `O=[N+]([O-])c1ccc(Nc2ccccc2)cc1`
Out: inactive

In: Identify the outcome logged in this assay for the compound shown: `Oc1cc(Cl)c(Cl)cc1Cl`
Out: active

In: Identify the outcome logged in this assay for the compound shown: `OCCCCO`
Out: inactive

In: Identify the outcome logged in this assay for the compound shown: `Oc1ccc(Cc2ccc(O)cc2)cc1`
Out: inactive

In: Identify the outcome logged in this assay for the compound shown: `O=C1C=CC(=O)c2ccccc21`
Out: active

In: Identify the outcome logged in this assay for the compound shown: `CCOC(=O)CCN(SN(C)C(=O)Oc1cccc2c1OC(C)(C)C2)C(C)C`
Out: inactive

In: Identify the outcome logged in this assay for the compound shown: `Cc1cc(Cl)ccc1N`
Out: inactive

In: Identify the outcome logged in this assay for the compound shown: C=CC(Cl)CCl (configuration not stated)
Out: inactive

In: Identify the outcome logged in this assay for the compound shown: CCOC(=O)C(SP(=S)(OC)OC)c1ccccc1 (configuration not stated)
Out: inactive

In: Identify the outcome logged in this assay for the compound shown: `O=C(Cc1ccccc1)OCCc1ccccc1`
Out: inactive

In: Identify the outcome logged in this assay for the compound shown: `NC(=O)CCl`
Out: inactive

In: Identify the outcome logged in this assay for the compound shown: `c1ccc(-c2cccc(-c3ccccc3)c2)cc1`
Out: active

In: Identify the outcome logged in this assay for the compound shown: `Clc1cccc(Cl)c1`
Out: inactive
